# protocol: self-splicing fitness, log relative to wild type (ln ratio); higher = more splicing; Tetrahymena group I intron in knt gene, E. coli kanamycin selection, DiMSum; sequences stand for … in CUCUCU…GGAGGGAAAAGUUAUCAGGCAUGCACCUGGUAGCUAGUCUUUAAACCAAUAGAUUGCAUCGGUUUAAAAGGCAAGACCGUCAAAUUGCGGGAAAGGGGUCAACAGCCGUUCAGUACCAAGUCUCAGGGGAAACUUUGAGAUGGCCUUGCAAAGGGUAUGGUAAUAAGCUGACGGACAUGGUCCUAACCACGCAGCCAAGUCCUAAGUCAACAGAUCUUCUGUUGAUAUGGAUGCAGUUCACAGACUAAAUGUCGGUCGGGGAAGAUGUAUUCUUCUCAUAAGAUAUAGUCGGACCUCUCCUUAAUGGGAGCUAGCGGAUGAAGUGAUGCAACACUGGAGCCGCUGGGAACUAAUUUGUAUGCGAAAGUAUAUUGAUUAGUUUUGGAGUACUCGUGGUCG;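 note: selection with 25 µg/mL kanamycin versus none on LB agar overnight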
# recorded-conditions: 30 °C
readout-name: self-splicing fitness (ln)
Simply state the number, no unit and no words.

The cases that follow already have their self-splicing fitness (ln) on record.
[[record]]
seq_string = "GUAAAGCAAUAUUACGAAUA"
readout_name = "self-splicing fitness (ln)"
assay_result = -1.68

[[record]]
seq_string = "UGUUAGCAAUAUUACGUAUG"
readout_name = "self-splicing fitness (ln)"
assay_result = -0.871


Lookup result for `GCGUAGCAAUAUUACGUACU` ; measured self-splicing fitness (ln): -2.08

self-splicing fitness (ln) in this record for `GGUGAGCAAUAUUACGACGA` : -1.32

# self-splicing fitness (ln) (sequence: `UAGUAGCAAUAUUACGAAUA` ) is -1.33

Summary for this sequence, `CGUCAGCAAUAUUACGCCGC` : self-splicing fitness (ln) is -2.76

`UUAGAGCAAUAUUACGUUAG` yielded self-splicing fitness (ln) of -0.978

Form: sequence = `GUAGAGCAAUAUUACGUCGC` ; self-splicing fitness (ln) = -0.635

The sequence identified as `AUCGAGCAAUAUUACGCUCA` registered its self-splicing fitness (ln) at -1.09

Query `UCACAGCAAUAUUACGCGCG` yields self-splicing fitness (ln) of -0.645
